molecular target: CtermHisTag-mEGFR Wild type (Homo sapiens, UniProt P00533); experiment: biochemical
Sequence (P00533 whole entry): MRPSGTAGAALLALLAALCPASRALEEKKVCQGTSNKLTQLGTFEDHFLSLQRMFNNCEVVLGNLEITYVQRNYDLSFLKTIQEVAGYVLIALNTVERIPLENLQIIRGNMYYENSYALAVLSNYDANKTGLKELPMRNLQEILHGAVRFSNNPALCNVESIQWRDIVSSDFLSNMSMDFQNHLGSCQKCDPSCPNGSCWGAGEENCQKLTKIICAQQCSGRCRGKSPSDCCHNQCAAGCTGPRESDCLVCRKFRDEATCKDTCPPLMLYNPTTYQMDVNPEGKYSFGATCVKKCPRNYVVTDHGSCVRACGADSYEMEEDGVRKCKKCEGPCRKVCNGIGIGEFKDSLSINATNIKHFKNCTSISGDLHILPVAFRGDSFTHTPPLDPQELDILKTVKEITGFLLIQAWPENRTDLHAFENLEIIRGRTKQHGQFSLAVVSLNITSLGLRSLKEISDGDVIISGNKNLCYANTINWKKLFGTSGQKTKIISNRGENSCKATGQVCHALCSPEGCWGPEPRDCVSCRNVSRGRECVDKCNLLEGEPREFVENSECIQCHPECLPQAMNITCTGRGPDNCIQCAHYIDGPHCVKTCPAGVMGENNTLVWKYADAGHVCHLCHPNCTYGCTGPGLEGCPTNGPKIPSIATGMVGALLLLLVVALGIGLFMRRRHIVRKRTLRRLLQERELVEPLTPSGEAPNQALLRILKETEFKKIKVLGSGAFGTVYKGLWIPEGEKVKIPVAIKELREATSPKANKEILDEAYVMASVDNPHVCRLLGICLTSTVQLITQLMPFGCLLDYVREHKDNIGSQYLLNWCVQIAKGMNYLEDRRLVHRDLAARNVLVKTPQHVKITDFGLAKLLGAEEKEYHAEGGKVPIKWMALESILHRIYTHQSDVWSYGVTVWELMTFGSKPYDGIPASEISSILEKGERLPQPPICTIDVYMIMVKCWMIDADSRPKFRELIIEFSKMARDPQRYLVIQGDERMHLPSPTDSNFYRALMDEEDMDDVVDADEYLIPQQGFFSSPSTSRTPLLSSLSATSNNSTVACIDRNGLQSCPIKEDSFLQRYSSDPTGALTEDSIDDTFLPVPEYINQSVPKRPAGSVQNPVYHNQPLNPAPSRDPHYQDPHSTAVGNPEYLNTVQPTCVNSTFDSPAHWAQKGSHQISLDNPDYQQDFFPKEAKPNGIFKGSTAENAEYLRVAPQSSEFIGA

compound: C#Cc1cc(=O)n([C@H]2CC[C@@H](NC(=O)CN(C)C)CC2)c2nc(Nc3ccc(N4CCN(C)CC4)cc3)ncc12
IC50: 1 to 10 µM
//
compound: C#Cc1cc(=O)n([C@H]2CC[C@@H](NC(=O)CC(=O)O)CC2)c2nc(Nc3ccc(N4CCN(C)CC4)cc3)ncc12
IC50: < 1 µM
//
compound: C#Cc1cc(=O)n(-c2ccccc2)c2nc(Nc3ccc(N4CCN(C)CC4)cc3)ncc12
IC50: < 1 µM
//
compound: C#Cc1cc(=O)n(CC2CCNC2=O)c2nc(Nc3ccc(N4CCN(C)CC4)cc3)ncc12 (stereo not shown)
IC50: > 10 µM
//
compound: C=Cc1c(-c2ccccc2Cl)c(=O)n(C)c2nc(Nc3ccc(N4CCN(C)CC4)cc3OC)ncc12
IC50: > 10 µM
//
compound: C=Cc1cc(=O)n(-c2ccccc2)c2nc(Nc3ccccc3OC)ncc12
IC50: > 10 µM
//
compound: C#Cc1c(-c2ccccc2)c(=O)n(C)c2nc(Nc3ccc(N(C)CCN(C)C)cc3OC)ncc12
IC50: 1 to 10 µM

---

molecular target: Phospho-EGFR (Tyr1068) in H1975 C797S cells (CRISPR-edited EGFR C797S) (Homo sapiens, UniProt P00533, C797S/L858R/T790M); assay: HTRF pEGFR/total EGFR in H1975 C797S cells; conditions: ratio pEGFR/total EGFR, compound 3 hours
Sequence (P00533 25-1210 T790M/C797S/L858R): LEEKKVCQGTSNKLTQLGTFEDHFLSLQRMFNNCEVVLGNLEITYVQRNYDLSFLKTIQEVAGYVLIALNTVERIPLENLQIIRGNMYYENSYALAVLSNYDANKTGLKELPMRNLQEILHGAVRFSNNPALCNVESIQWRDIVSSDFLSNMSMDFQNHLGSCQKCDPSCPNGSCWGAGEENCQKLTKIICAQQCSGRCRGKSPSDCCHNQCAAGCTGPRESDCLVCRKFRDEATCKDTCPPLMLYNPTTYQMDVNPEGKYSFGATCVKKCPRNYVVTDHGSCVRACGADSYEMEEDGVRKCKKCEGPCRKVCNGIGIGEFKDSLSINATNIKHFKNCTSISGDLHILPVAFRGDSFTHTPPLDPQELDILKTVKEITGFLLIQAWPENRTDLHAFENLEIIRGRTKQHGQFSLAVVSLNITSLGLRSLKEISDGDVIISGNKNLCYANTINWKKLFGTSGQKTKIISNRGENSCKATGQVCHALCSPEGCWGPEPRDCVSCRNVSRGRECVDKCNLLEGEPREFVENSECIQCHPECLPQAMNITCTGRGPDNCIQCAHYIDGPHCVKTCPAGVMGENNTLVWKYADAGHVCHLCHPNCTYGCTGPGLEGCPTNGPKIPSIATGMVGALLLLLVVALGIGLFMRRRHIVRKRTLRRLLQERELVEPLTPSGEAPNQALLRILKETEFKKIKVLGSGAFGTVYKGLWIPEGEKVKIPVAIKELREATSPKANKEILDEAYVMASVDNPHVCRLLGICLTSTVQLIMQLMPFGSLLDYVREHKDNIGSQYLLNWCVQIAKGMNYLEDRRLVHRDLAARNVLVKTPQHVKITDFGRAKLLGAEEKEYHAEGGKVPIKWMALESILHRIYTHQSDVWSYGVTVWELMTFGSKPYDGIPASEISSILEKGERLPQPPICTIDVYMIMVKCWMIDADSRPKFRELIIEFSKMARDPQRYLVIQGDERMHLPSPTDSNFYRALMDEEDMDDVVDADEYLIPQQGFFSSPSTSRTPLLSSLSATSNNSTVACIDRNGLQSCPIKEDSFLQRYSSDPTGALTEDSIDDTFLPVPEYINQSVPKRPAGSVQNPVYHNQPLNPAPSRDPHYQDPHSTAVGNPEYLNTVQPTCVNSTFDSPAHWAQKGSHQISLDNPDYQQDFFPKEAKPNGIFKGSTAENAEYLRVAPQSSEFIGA
pIC50: −log10 of the molar value.
resultType: pIC50

compound: C#Cc1cc(=O)n(C)c2nc(Nc3ccc(N4CCN(C)CC4)c(C(=O)NCC4CCCC4)c3)ncc12 [Example 221]
resultValue: 5.52 to 6.00
--
compound: C#Cc1cc(=O)n(C2CCNC2)c2nc(Nc3ccc(N4CCN(C)CC4)cc3)ncc12 (stereo not shown) [Example 106]
resultValue: 5.52 to 6.00
--
compound: C#Cc1cc(=O)n(C)c2nc(Nc3ccc(N(C)CCN(C)C)cc3)ncc12 [Example 43]
resultValue: > 6.30
--
compound: C#Cc1cc(=O)n(C2CC(=O)N(C)C2)c2nc(Nc3ccc(N4CCN(C)CC4)cc3)ncc12 (stereo not shown) [Example 117]
resultValue: < 5.52
--
compound: C#Cc1cc(=O)n2c3nc(ncc13)Nc1ccc(N3CCN(C)CC3)c(c1)CN(C)CCC2 [Example 226]
resultValue: > 6.30
--
compound: C#Cc1cc(=O)n(-c2ccccc2)c2nc(Nc3ccc(N4CCNC(C)C4)cc3)ncc12 (stereo not shown) [Example 27]
resultValue: > 6.30
--
compound: C#Cc1cc(=O)n(C2CCOCC2)c2nc(Nc3ccc(N4CCN(C)CC4)cc3)ncc12 [Example 69]
resultValue: 5.52 to 6.00
--
compound: C#Cc1cc(=O)n2c3nc(ncc13)Nc1ccc(N3CCN(C)CC3)c(c1)CNCCC2 [Example 199]
resultValue: < 5.52
--
compound: C#Cc1cc(=O)n(C(C)C)c2nc(Nc3ccc(N4CCN(C)CC4)cc3)ncc12 [Example 76]
resultValue: 6.00 to 6.30
--
compound: C#Cc1cc(=O)n(-c2ccccc2)c2nc(Nc3ccc(N4CCN(C)CC4)c(C)c3)ncc12 [Example 12]
resultValue: > 6.30
--
compound: C#Cc1cc(=O)n2c3nc(ncc13)Nc1ccc(N3CCN(C)CC3)c(c1)NC(=O)CCC2 [Example 222]
resultValue: > 6.30
--
compound: C#Cc1cc(=O)n(-c2ccccc2)c2nc(Nc3ccc(N(C)CCN(C)C)cc3)ncc12 [Example 34]
resultValue: < 5.52
--
compound: C#Cc1cc(=O)n(C)c2nc(Nc3ccc(N4CCN(C)CC4)c(OCCC)c3)ncc12 [Example 207]
resultValue: > 6.30
--
compound: C#Cc1cc(=O)n(C)c2nc(Nc3ccc(N4CCN(C)CC4)c(OCCCC4CCCC4)c3)ncc12 [Example 212]
resultValue: > 6.30
--
compound: C#Cc1cc(=O)n2c3nc(ncc13)Nc1cccc(c1)OCCCC2 [Example 193]
resultValue: 6.00 to 6.30
--
compound: C#Cc1cc(=O)n(-c2ccccc2)c2nc(Nc3ccc(N4CCN(C)CC4)c(CC)c3)ncc12 [Example 24]
resultValue: > 6.30

---

biological target: CtermHisTag-mEGFR Wild type (Homo sapiens); test: biochemical
resultType: IC50

compound: C#Cc1cc(=O)n(C2CCCC2)c2nc(Nc3ccc(N4CCN(C)CC4)cc3)ncc12
resultValue: < 1 µM

compound: C#Cc1c(C)c(=O)n(Cc2cccnc2)c2nc(Nc3ccc(N4CCN(C)CC4)cc3)ncc12 [Example 116]
resultValue: 1 to 10 µM

compound: C=Cc1c(-c2ccccc2Cl)c(=O)n(C)c2nc(Nc3cccc(OC)c3)ncc12
resultValue: > 10 µM

compound: C#Cc1c(C)c(=O)n(Cc2ncco2)c2nc(Nc3ccc(N4CCN(C)CC4)cc3)ncc12
resultValue: < 1 µM

compound: C#Cc1c(C)c(=O)n([C@H]2CC[C@@H](NC(C)=O)CC2)c2nc(Nc3ccc(N4CCN(C)CC4)cc3)ncc12
resultValue: 1 to 10 µM

compound: C#Cc1cc(=O)n(-c2cccc(NS(C)(=O)=O)c2)c2nc(Nc3ccccc3OC)ncc12
resultValue: > 10 µM

compound: C#Cc1c(C)c(=O)n2c3nc(ncc13)Nc1cccc(c1)OC/C=C\C2
resultValue: > 10 µM

compound: C#Cc1cc(=O)n(-c2ccc(NC(=O)CC)cc2)c2nc(Nc3ccccc3OC)ncc12
resultValue: 1 to 10 µM

compound: C#Cc1cc(=O)n(C2CCNC2=O)c2nc(Nc3ccc(N4CCN(C)CC4)cc3)ncc12 (centres unmarked)
resultValue: > 10 µM

compound: C#Cc1cc(=O)n([C@H]2CC[C@@H](NC(=O)CC(=O)N(C)C)CC2)c2nc(Nc3ccc(N4CCN(C)CC4)cc3)ncc12
resultValue: 1 to 10 µM

compound: C#Cc1cc(=O)n(Cc2ccn(C)n2)c2nc(Nc3ccc(N4CCN(C)CC4)c(OCCC4CCCC4)c3)ncc12
resultValue: < 1 µM

compound: C=Cc1c(-c2c(Cl)cccc2Cl)c(=O)n(C)c2nc(Nc3ccccc3OC)ncc12
resultValue: > 10 µM

compound: C#Cc1cc(=O)n2c3nc(ncc13)Nc1ccc(N3CCN(C)CC3)c(c1)OC/C=C\C2
resultValue: < 1 µM

compound: C#Cc1cc(=O)n(C)c2nc(Nc3ccc(N4CCN(C)CC4)c(OCCC(C)C)c3)ncc12
resultValue: < 1 µM

compound: C#Cc1c(C)c(=O)n(Cc2ccn(C)n2)c2nc(Nc3ccc(N4CCN(C)CC4)cc3)ncc12
resultValue: < 1 µM

compound: C#Cc1cc(=O)n(-c2ccccc2)c2nc(Nc3ccc(N4CCCNCC4)cc3)ncc12
resultValue: < 1 µM

compound: C#Cc1cc(=O)n(-c2cccc([N+](=O)[O-])c2)c2nc(Nc3ccccc3OC)ncc12
resultValue: > 10 µM

compound: C#Cc1c(NC(C)=O)c(=O)n(-c2ccccc2)c2nc(Nc3ccccc3OC)ncc12
resultValue: > 10 µM

compound: C#Cc1c(-c2ccccc2Cl)c(=O)n(C)c2nc(Nc3ccc(N(C)CCN(C)C)c(C)c3)ncc12
resultValue: < 1 µM

compound: C#Cc1cc(=O)n(C)c2nc(Nc3ccc(N4CCN(C)CC4)cc3)ncc12
resultValue: < 1 µM

compound: C#Cc1cc(=O)n2c3nc(ncc13)Nc1cccc(c1)OC/C=C\C2
resultValue: 1 to 10 µM

compound: C#Cc1cc(=O)n(-c2cccc(NC(=O)C=C)c2)c2nc(Nc3ccccc3OC)ncc12
resultValue: 1 to 10 µM

compound: C#Cc1cc(=O)n([C@H]2CC[C@@H](NC(=O)CC(=O)NC)CC2)c2nc(Nc3ccc(N4CCN(C)CC4)cc3)ncc12
resultValue: 1 to 10 µM

compound: C#Cc1cc(=O)n2c3nc(ncc13)Nc1ccc(N3CCN(C)CC3)c(c1)OCCCCC2
resultValue: < 1 µM

compound: C#Cc1nc(=O)n(-c2ccccc2)c2nc(Nc3ccccc3OC)ncc12
resultValue: < 1 µM

compound: C#Cc1cc(=O)n(-c2ccccc2)c2nc(Nc3ccc(C4CCN(C)CC4)cc3)ncc12
resultValue: < 1 µM

compound: C=Cc1c(C#N)c(=O)n(-c2ccccc2)c2nc(Nc3ccccc3OC)ncc12
resultValue: 1 to 10 µM

compound: C#Cc1cc(=O)n(C)c2nc(Nc3ccc(N4CCN(C)CC4)c(OCCC4CCCCC4)c3)ncc12
resultValue: < 1 µM

compound: C#Cc1cc(=O)n(C)c2nc(Nc3ccc(N4CCN(C)CC4)c(OCCc4ccnn4C)c3)ncc12
resultValue: < 1 µM

compound: C=Cc1c(-c2ccccc2Cl)c(=O)n(C)c2nc(NCCCCN3CCN(C)CC3)ncc12
resultValue: > 10 µM

compound: C#Cc1cc(=O)n2c3nc(ncc13)Nc1ccc(N3CCN(C)CC3)c(c1)COCCC2
resultValue: > 10 µM

compound: C#Cc1cc(=O)n(C2CCCC2)c2nc(Nc3cccc(CN4CCC(CS(C)(=O)=O)CC4)c3)ncc12
resultValue: > 10 µM
